Molecular target: enkephalinase purified from membrane fractions of sheep corpus striatum (Ovis aries, UniProt A0ACI6S0K5)
Sequence (A0ACI6S0K5 2-750): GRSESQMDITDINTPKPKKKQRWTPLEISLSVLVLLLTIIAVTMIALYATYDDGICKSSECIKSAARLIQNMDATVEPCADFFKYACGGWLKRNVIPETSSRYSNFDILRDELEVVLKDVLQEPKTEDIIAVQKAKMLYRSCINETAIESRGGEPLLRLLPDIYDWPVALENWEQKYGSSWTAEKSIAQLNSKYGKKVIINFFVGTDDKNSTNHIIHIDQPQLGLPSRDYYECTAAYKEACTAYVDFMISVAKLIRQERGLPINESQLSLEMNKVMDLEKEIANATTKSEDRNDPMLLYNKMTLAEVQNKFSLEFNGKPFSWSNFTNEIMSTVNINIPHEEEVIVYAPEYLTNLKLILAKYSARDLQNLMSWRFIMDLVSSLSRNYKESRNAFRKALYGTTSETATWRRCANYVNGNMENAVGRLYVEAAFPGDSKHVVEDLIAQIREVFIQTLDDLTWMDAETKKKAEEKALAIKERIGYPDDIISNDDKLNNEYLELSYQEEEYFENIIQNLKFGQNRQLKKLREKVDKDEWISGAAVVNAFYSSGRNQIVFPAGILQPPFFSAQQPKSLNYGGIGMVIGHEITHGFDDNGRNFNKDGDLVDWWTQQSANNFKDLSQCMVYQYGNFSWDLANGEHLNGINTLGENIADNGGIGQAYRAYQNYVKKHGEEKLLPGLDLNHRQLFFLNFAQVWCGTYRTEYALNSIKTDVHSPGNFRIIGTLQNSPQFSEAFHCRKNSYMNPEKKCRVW
Checkbox rule: IC50 lower than 5 nM = 1 (yes); IC50 not lower than 5 nM = 0 (no).

compound: CC(CS)C(=O)N[C@@H](Cc1ccc(O)cc1)C(=O)O (mixture of isomers) [Ex. 4]
classification: 1 (yes)
//
compound: C[C@H](CS)C(=O)N[C@@H](Cc1ccc(O)c(O)c1)C(=O)O [Ex. 6]
classification: 1 (yes)
//
compound: CC(C)CC(CS)C(=O)N[C@@H](CCCNC(=N)N)C(=O)O (mixture of isomers) [Ex. 7]
classification: 0 (no)
//
compound: N=C(N)NCCC[C@H](NC(=O)C(CS)Cc1ccccc1)C(=O)O (mixture of isomers) [Ex. 2]
classification: 0 (no)
//
compound: CC(CS)C(=O)N[C@@H](CCCNC(=N)N)C(=O)O (mixture of isomers) [Ex. 1]
classification: 0 (no)

// data source = patent US4401677A
